Readings of Specific initial rate [I] for the listed compounds
experiment: Cl-/NO3- exchange in LUVs with preincorporated anionophore (lucigenin method); format: biochemical; conditions: transporter preincorporated in LUVs (70% POPC + 30% cholesterol), 25 mM NaCl gradient, 225 mM NaNO3; new compound or new data
measured-endpoint: Specific initial rate [I]

> print(dat)
                                 cpd.smiles       result
1  FC(F)(F)c1ccc(NC(=S)NCCN(CCNC(=S)Nc2ccc(C(F)(F)F)cc2)CCNC(=S)Nc2ccc(C(F)(F)F)cc2)cc1   36 ^b s^–1
2  FC(F)(F)c1cc(NC(=S)NCCN(CCNC(=S)Nc2cc(C(F)(F)F)cc(C(F)(F)F)c2)CCNC(=S)Nc2cc(C(F)(F)F)cc(C(F)(F)F)c2)cc(C(F)(F)F)c1  590 ^b s^–1
3  CCCCCCCCOC(=O)[C@]12CC[C@@H](NC(=S)Nc3ccc([N+](=O)[O-])cc3)C[C@@H]1C[C@@H](NC(=S)Nc1ccc([N+](=O)[O-])cc1)CC2     370 s^–1

====

experiment: Affinity to Cl- in chloroform by extraction of Et4N+Cl- from water; assay type: binding; settings: extraction of Et4N^+Cl^– from water into chloroform at 303 K; new compound or new data
Readings of K a to Cl^– in CHCl3 for the listed compounds
measured-endpoint: K a to Cl^– in CHCl3

> print(dat)
                                 cpd.smiles     measured.endpoint              result
1  FC(F)(F)c1ccc(NC(=S)NCCN(CCNC(=S)Nc2ccc(C(F)(F)F)cc2)CCNC(=S)Nc2ccc(C(F)(F)F)cc2)cc1  K a to Cl^– in CHCl3  1.5 × 10^7 ^b M^–1
2  COCCOCCOC(=O)[C@]12CC[C@@H](NC(=O)Nc3cc(C(F)(F)F)cc(C(F)(F)F)c3)C[C@@H]1C[C@@H](NC(=O)Nc1cc(C(F)(F)F)cc(C(F)(F)F)c1)CC2  K a to Cl^– in CHCl3     2.5 × 10^8 M^–1
3  COCCOCCOC(=O)[C@]12CC[C@@H](NC(=O)Nc3ccc(C(F)(F)F)cc3)C[C@@H]1C[C@@H](NC(=O)Nc1ccc(C(F)(F)F)cc1)CC2  K a to Cl^– in CHCl3     1.4 × 10^8 M^–1
4  FC(F)(F)c1cc(NC(=S)NCCN(CCNC(=S)Nc2cc(C(F)(F)F)cc(C(F)(F)F)c2)CCNC(=S)Nc2cc(C(F)(F)F)cc(C(F)(F)F)c2)cc(C(F)(F)F)c1  K a to Cl^– in CHCl3  1.5 × 10^9 ^b M^–1
5  S=C(NCCN(CCNC(=S)Nc1ccccc1)CCNC(=S)Nc1ccccc1)Nc1ccccc1  K a to Cl^– in CHCl3  5.2 × 10^5 ^b M^–1
6  CCCCCCCCOC(=O)[C@]12CC[C@@H](NC(=S)Nc3ccc([N+](=O)[O-])cc3)C[C@@H]1C[C@@H](NC(=S)Nc1ccc([N+](=O)[O-])cc1)CC2  K a to Cl^– in CHCl3     1.5 × 10^9 M^–1

====

tested on: YFP-CFBE cells; assay: XTT cell viability assay in YFP-CFBE cells; assay type: cell-based; conditions: XTT, 18 h treatment, fit of first order regression (Fig. S23); read-out: half-maximal inhibitory concentration (IC50), cell viability
Readings of IC50 for the listed compounds
measured-endpoint: IC50 (µM)

compound	measured-endpoint	readout-units	inequality-symbol	result
FC(F)(F)c1cc(NC(=S)NCCN(CCNC(=S)Nc2cc(C(F)(F)F)cc(C(F)(F)F)c2)CCNC(=S)Nc2cc(C(F)(F)F)cc(C(F)(F)F)c2)cc(C(F)(F)F)c1 [Compound 19]	IC50	µM	=	38
CCOC(=O)[C@]12CC[C@@H](NC(=S)Nc3cc(C(F)(F)F)cc(C(F)(F)F)c3)C[C@@H]1C[C@@H](NC(=S)Nc1cc(C(F)(F)F)cc(C(F)(F)F)c1)CC2 [Compound 15]	IC50	µM	>	50
